- System Name: human M2 receptor (Homo sapiens, UniProt P08172)
- Construct: expressed in transfected cells; host or cells: CHO-DUKX (CHO-DUKX-M2-GIRK)
- Sequence (P08172 whole entry): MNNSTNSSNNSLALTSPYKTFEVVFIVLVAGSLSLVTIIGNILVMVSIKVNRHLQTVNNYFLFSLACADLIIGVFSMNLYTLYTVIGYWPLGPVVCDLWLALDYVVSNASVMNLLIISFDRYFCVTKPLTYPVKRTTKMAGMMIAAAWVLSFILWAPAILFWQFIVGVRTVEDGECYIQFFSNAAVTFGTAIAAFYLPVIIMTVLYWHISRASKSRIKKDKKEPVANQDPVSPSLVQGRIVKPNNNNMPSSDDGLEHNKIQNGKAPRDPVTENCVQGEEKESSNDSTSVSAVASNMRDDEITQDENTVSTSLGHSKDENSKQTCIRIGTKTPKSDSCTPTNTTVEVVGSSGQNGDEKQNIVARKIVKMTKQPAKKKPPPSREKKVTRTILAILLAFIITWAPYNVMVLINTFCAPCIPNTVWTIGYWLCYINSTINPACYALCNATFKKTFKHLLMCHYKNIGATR
- Assay Explanation: Functional M2-GIRK1/4 activation test: allosteric potency (EC50) and efficiency at EC20 acetylcholine
- Type: cell-based
- Stated Conditions: boosting of the acetylcholine effect at EC20 acetylcholine concentration; CHO-DUKX-M2-GIRK cells
Property Measured: Emax (%)

[[record]]
molecule = "CC(C)C(NC(=O)c1cn(-c2c(F)cc(F)cc2F)c2nc(N3CC[C@H](O)C3)c(F)cc2c1=O)C(F)(F)F (single isomer, unassigned) [Example 139]"
unit = "%"
number = 100

[[record]]
molecule = "CC(C)C(NC(=O)c1cn(-c2c(F)cc(F)cc2F)c2nc(N3CC[C@H](O)C3)c(F)cc2c1=O)C(F)(F)F (mixture of isomers) [Example 126]"
unit = "%"
number = 97

[[record]]
molecule = "CC(C)[C@H](C)NC(=O)c1cn(-c2c(F)cc(F)cc2F)c2nc(N3CC[C@H](O)C3)c(F)cc2c1=O"
unit = "%"
number = 100

[[record]]
molecule = "CCC(C)(C)NC(=O)c1cn(-c2c(F)cc(F)cc2F)c2nc(N3C[C@@H](O)[C@@H](O)C3)c(F)cc2c1=O"
unit = "%"
number = 99

[[record]]
molecule = "CCC(C)(C)NC(=O)c1cn(-c2ncc(F)cc2F)c2nc(N3C[C@@H](O)[C@H](O)C3)c(F)cc2c1=O"
unit = "%"
number = 100

[[record]]
molecule = "CC[C@@H](NC(=O)c1cn(-c2c(F)cc(F)cc2F)c2nc(N3C[C@@H](O)[C@@H](O)C3)c(F)cc2c1=O)C(F)(F)F"
unit = "%"
number = 100

[[record]]
molecule = "CC(C)(C)C(NC(=O)c1cn(-c2c(F)cc(F)cc2F)c2nc(N3CC4(COC4)C3)c(F)cc2c1=O)C(F)(F)C(F)(F)F (single isomer, unassigned)"
unit = "%"
number = 100

[[record]]
molecule = "C[C@@H](NC(=O)c1cn(-c2c(F)cc(F)cc2Cl)c2nc(N3C[C@@H](O)[C@H](O)C3)c(F)cc2c1=O)C(F)(F)F"
unit = "%"
number = 94

[[record]]
molecule = "CC(C)(CC(F)(F)F)NC(=O)c1cn(-c2c(F)cc(F)cc2F)c2nc(N3C[C@@H](O)[C@H](O)C3)c(F)cc2c1=O"
unit = "%"
number = 94

[[record]]
molecule = "CC(C)[C@H](C)NC(=O)c1cn(-c2c(F)cc(F)cc2F)c2nc(N3C[C@@H](O)[C@@H](O)C3)c(F)cc2c1=O"
unit = "%"
number = 100

[[record]]
molecule = "CCC(CC)(CC)NC(=O)c1cn(-c2c(F)cc(F)cc2F)c2nc(N3C[C@@H](O)[C@H](O)C3)c(F)cc2c1=O"
unit = "%"
number = 100

[[record]]
molecule = "CC(C)C(NC(=O)c1cn(-c2c(F)cc(F)cc2F)c2nc(N3C[C@@H](O)[C@@H](O)C3)c(F)cc2c1=O)C(F)(F)F (mixture of isomers) [Example 123]"
unit = "%"
number = 100

[[record]]
molecule = "C[C@H](NC(=O)c1cn(-c2c(F)cc(F)cc2Cl)c2nc(N3C[C@@H](O)[C@H](O)C3)c(F)cc2c1=O)C(F)(F)F (single isomer, unassigned) [Example 225]"
unit = "%"
number = 82

[[record]]
molecule = "CC(C)(C)C(NC(=O)c1cn(-c2c(F)cc(F)cc2F)c2nc(N3CC(CO)(CO)C3)c(F)cc2c1=O)C(F)(F)C(F)(F)F (single isomer, unassigned)"
unit = "%"
number = 100

[[record]]
molecule = "CCC(C)(CC)NC(=O)c1cn(-c2c(F)cc(F)cc2F)c2nc(N3C[C@@H](O)[C@@H](O)C3)c(F)cc2c1=O"
unit = "%"
number = 100

[[record]]
molecule = "CC(NC(=O)c1cn(-c2c(F)cc(F)cc2F)c2nc(N3CC(CO)(CO)C3)c(F)cc2c1=O)C(F)(F)C(F)(F)F (racemic)"
unit = "%"
number = 86

[[record]]
molecule = "CCC(COC(F)(F)F)NC(=O)c1cn(-c2c(F)cc(F)cc2F)c2nc(N3C[C@@H](O)[C@@H](O)C3)c(F)cc2c1=O (single isomer, unassigned) [Example 96]"
unit = "%"
number = 96

[[record]]
molecule = "CC(C)(NC(=O)c1cn(-c2c(F)cc(F)cc2Cl)c2nc(N3C[C@@H](O)[C@H](O)C3)c(F)cc2c1=O)C(F)F [Example 141]"
unit = "%"
number = 97

[[record]]
molecule = "COC(=O)C12CCC(NC(=O)c3cn(-c4c(F)cc(F)cc4F)c4nc(N5C[C@@H](O)[C@H](O)C5)c(F)cc4c3=O)(CC1)C2"
unit = "%"
number = 95

[[record]]
molecule = "CC(C)(NC(=O)c1cn(-c2c(F)cc(F)cc2F)c2nc(N3C[C@@H](O)[C@H](O)C3)c(F)cc2c1=O)C(F)F"
unit = "%"
number = 95

[[record]]
molecule = "COC[C@H](NC(=O)c1cn(-c2c(F)cc(F)cc2F)c2nc(N3CC[C@H](O)C3)c(F)cc2c1=O)C(C)C"
unit = "%"
number = 100

[[record]]
molecule = "C[C@@H](NC(=O)c1cn(-c2c(F)cc(F)cc2F)c2nc(N3C[C@@H](O)[C@H](O)C3)c(F)cc2c1=O)C1CC1"
unit = "%"
number = 98

[[record]]
molecule = "CCC(C)(C)NC(=O)c1cn(-c2c(F)cc(F)cc2Cl)c2nc(N3C[C@@H](O)[C@H](O)C3)c(F)cc2c1=O"
unit = "%"
number = 94

[[record]]
molecule = "CCC(C)(C)NC(=O)c1cn(-c2c(F)cc(F)cc2F)c2nc(N3C[C@@H](O)[C@H](O)C3)c(F)cc2c1=O"
unit = "%"
number = 100

